Where do the numbers come from? From patent US20240376185A1.

target: human IgG; test: ELISA, coated antigen, E. coli supernatant
Please enter class 1 where absorbance at 450 nm is greater than or equal to 0.1 A450, and class 0 where it is lower.

SVG18 (VHH, not shown: large carriers) VHH: QVQLQQSGGGLVQPGGSLRLSCAASGFTFSSYAMSWVRQAPGKGLEWVSAINSGGDIISYADSVKGRFTISRDNAKNTLYLQMNSLKPEDTAVYYCAKSPIVRTYGGYDYWGQGTQVTVSS = class 0
SVG19 (VHH, not shown: large carriers) VHH: QVQLQQSGGGLVQPGGSLRLSCAASGFTFSSYAMSWVRQAPGKGLEWVSAINSGGGSTSYADSVKGRFTISRDNAKNTLYLQMNSLKPEDTAVYYCAKDFDPWGVGTGGYDYWGQGTQVTVSS = class 1
SVG07 (VHH, not shown: large carriers) VHH: QVQLQESGPGLVKPSQTLSLTCTVSGGSITTTAYAWSWIRQPPGKGLEWMGAIRFDGTTDYSPSLKSRISISRDTSNNQFSLRMSSVTPEDTAVYYCARYGVVSDHGGLDYWGQGTQVTVSS = class 1
SVG13 (VHH) VHH: QVQLQESGGGLVQPGGSLRLSCEASGFTFDDYGMSWVRQAPGKGLEWVSSLTPNGGSTYYADSVKGRFTISRDNAKNTLYLQMNSLKPEDTALYYCAKNSYYGAMDYWGKGTLVTVSS = class 1
SVG23 (VHH, not shown: large carriers) VHH: QVQLQESGGGLVQAGGSLRLSCAASGRAFGSYTMNWFRQAPGKERDFVAGIMSSGMNTWYADSVKGRFTISRDNAKNTVYLQMNSLKPEDTAVYYCASRPRSTMTSGRYLYDYWGQGTQVTVSS = class 0
SVG24 (VHH, not shown: large carriers) VHH: QVQLQQSGGGLVQAGGSLRLSCAASGRTFSTYNIAWFRQAPGKEREFVTAITWGSGNTYYADSVKGRFTISRDNAKNTVFLQMNSLKPDDTAVYYCAARRSLGPTMAFAYEYWGQGTQVTVSS = class 0
SVG03 (VHH, not shown: large carriers) VHH: QVQLQESGGGLVQAGGSLRLSCAASGRTFSNYVMGWFRQAPGKEREFVSAISWNGVSTFYADSVKGRFTISRDNAKNTVYLQMNSLKPEDTAVYYCAADERFVVRYNYWGQGTQVTVSS = class 0

Moving on to another binder below.
Input line: Test whether the binder SVG06 (VHH) VHH: QVQLQESGGALVQPGGSLRLSCAASGFPFSAYDMTWVRQAPGQGLEWVSTIHKSGGITTYADSVKGRFTISRDNAKNTLYLQMNNLESEDTAVYYCAKALRAHNSDYVGRNALGSWGEGTLVTVSS records absorbance at 450 nm of 0.1 A450 or higher.
Output line: class 1
